# test_system: Dimer of Gag-Pol polyprotein [489-587] (Human immunodeficiency virus 1, UniProt P12497)
# Construct: 489-587
# test_protocol: Protease Inhibition Assay
# run_conditions: pH 4.7; 37 °C
# Experimental: For determination of IC50 values, HIV-1 protease was added to assay buffer containing inhibitor and the substrate (H-His-Lys-Ala-Arg-Val-Leu- (p-NO2) Phe-Glu-Ala-norleucine-Ser-NH2). The Leu- (p-NO2) Phe bond of the substrate was cleaved by the enzyme, and the substrate and products were separated by reversed-phase HPLC. Absorbance was measured at 220 nm, peak areas were determined, and percentage conversion to product was calculated.
# pIC50 per entry
FYI, pIC50 means -log10 of a concentration in mol per litre.

Below are worked cases with known answers.
> print(dat)
                 compound.structure.string  property.name  result.number
1        COc1ccccc1OCCCc1c(O)c2ccccc2oc1=O          pIC50           4.36
2      O=c1oc2ccccc2c(O)c1CCCOc1cccc(CO)c1          pIC50           5.64
3    O=c1oc2ccccc2c(O)c1CC/C(=N/O)c1ccccc1          pIC50           4.15
4       Nc1cccc(OCCCc2c(O)c3ccccc3oc2=O)c1          pIC50           5.19
5  O=C(O)c1cccc(OCCCc2c(O)c3ccccc3oc2=O)c1          pIC50           5.15

Summary for this compound, O=c1oc2ccccc2c(O)c1CCCO : pIC50 is 4.07

For record CCOC(=O)c1cccc(OCCCc2c(O)c3ccccc3oc2=O)c1 the listed pIC50 is 5.85

Sample COc1ccccc1CCCCc1c(O)c2ccccc2oc1=O ; pIC50 observed: 5.77

Just so you know, measured pIC50 for NC(=O)c1cccc(OCCCc2c(O)c3ccccc3oc2=O)c1 came out at 5.41
